# Target or test system: “empty” DR4-LZ (DRA*01:01/DRB1*04:01 ectodomains with Jun/Fos leucine zippers, non-covalent heterodimer displayed on yeast through Aga2p)
# Procedure summary: competition
# Test conditions: chains peptide; modification not given
pIC50: −log10 of the molar value.
Value kind: pIC50

| Binder | Value kind | Reported |
| --- | --- | --- |
| PKYVKQNTLKLAT [non-biotinylated HA306-318] | pIC50 | 4.18 |

Values from patent US20220381793A1
